Target: human TLR9 (Homo sapiens, UniProt Q9NR96)
Sequence (Q9NR96 26-1032): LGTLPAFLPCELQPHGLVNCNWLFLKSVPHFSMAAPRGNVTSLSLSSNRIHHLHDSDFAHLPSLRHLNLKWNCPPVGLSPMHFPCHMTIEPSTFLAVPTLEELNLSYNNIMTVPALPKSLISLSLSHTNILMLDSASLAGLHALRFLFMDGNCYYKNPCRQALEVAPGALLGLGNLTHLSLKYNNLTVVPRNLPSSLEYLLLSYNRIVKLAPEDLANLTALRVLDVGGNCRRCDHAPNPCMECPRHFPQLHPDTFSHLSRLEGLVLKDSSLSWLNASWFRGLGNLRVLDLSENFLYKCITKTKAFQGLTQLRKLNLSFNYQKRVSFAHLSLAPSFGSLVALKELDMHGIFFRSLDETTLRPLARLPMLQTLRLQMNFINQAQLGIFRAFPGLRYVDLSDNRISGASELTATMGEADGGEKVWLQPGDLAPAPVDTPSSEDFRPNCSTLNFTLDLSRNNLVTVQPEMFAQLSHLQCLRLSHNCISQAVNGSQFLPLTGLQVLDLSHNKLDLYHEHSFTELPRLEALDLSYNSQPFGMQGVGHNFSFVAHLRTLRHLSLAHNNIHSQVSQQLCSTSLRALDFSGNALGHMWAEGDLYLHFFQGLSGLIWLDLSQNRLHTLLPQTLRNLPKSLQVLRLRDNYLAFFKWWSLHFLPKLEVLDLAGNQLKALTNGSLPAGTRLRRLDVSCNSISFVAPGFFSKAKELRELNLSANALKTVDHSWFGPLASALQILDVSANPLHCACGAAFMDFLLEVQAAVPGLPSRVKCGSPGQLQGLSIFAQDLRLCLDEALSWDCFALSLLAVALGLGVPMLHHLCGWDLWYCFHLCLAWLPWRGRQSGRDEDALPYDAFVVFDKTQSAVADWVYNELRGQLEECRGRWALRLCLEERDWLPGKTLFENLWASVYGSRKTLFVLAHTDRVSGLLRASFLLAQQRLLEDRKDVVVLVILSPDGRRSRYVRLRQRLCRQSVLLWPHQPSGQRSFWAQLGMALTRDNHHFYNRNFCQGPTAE
Test: TLR9 inhibition reporter assay (HEK-Blue cells, SEAP reporter, ODN2006 stimulation)
Conditions: HEK-Blue cells overexpressing human TLR9, SEAP reporter, ODN2006 5 nM
pIC50: −log10 of the molar value.
Measure: pIC50

Solved entries (count: 2):
CNC(=O)CN1CCC(c2ccc3[nH]c(-c4cc(OC)n5ncnc5c4)c(C(C)C)c3c2)CC1
6.00 to 7.00
CCc1c(-c2ccnc3[nH]ncc23)[nH]c2ccc(C3CCN(Cc4c[nH]c(-c5ccccc5)n4)CC3)cc12
4.30 to 6.00

Fill in the blank: the reported pIC50 of Cc1c(-c2[nH]c3ccc(C4CCN(CC(=O)N(C)C)CC4)cc3c2C(C)C)cn2nnnc2c1C is ____.
4.30 to 6.00

What does the data say about its pIC50? Entry: Cc1cc(-c2[nH]c3ccc(C4CCNCC4)cc3c2C(C)C)cn2cc(C(=O)NC3CC3)nc12
6.00 to 7.00

pIC50 lookup needed for Cc1c(-c2ccnc3c2ccn3C)[nH]c2ccc(C3CCN(C4CCN(C(C)C)CC4)CC3)cc12 , thanks.
> 7.00

# input compound: CCc1c(-c2cnc3cccnn23)[nH]c2ccc(C3CCNCC3)cc12 ; wanted: its pIC50
4.30 to 6.00

May I ask what pIC50 has been recorded for CCc1c(-c2ccc3onc(N)c3c2)[nH]c2ccc(C3CCNCC3)cc12 ?
4.30 to 6.00

What does the data say about its pIC50? Entry: Cc1c(-c2ccnc3[nH]cnc23)[nH]c2ccc(C3CCNCC3)cc12
6.00 to 7.00

Reference source for all entries: patent US11739098B2
